# ASSAY_SYSTEM: Bromodomain BRD4 (1-477) (Homo sapiens)
# Construct: Recombinant Human Bromodomains (BRD2 (1-473), BRD3 (1-435) and BRD4 (1-477))
# PROTOCOL_TEXT: Time Resolved Fluorescence Resonance Energy Transfer (TR-FRET) binding assay, BRD4
# CONDITION_NOTES: BRD4 100 nM, acetylated histone peptide 300 nM
pIC50: −log10 of the molar value. Where a name gives a salt, the structure may show the parent alone.
READOUT_KIND: pIC50

Solved entries:
CC(=O)N1c2ccc(-c3ccc(C(=O)OCC[N+](C)(C)C)cc3)cc2[C@H](Nc2ccc(Cl)cc2)C[C@@H]1C [Example 2, formate]; 6.30 to 7.20
CC(=O)N1c2ccc(-c3ccc(C(=O)OCCCN(C)C)cc3)cc2[C@H](NC(=O)OC(C)C)C[C@@H]1C; 6.30 to 7.20
CC(=O)N1c2ccc(-c3ccc(C(=O)OCCN(C)C)cn3)cc2[C@H](Nc2ccc(C#N)cn2)C[C@@H]1C; 6.30 to 7.20

Please turn your attention to the following entry.
Please provide the recorded pIC50 for `CC(=O)N1c2ccc(-c3ccc(C(=O)OCCCN(C)C)cn3)cc2[C@H](Nc2ccc(C#N)cn2)C[C@@H]1C` , tested on Bromodomain BRD4 (1-477) (Homo sapiens).
6.30 to 7.20
